tgt: human mGluR5A (Homo sapiens, UniProt P41594)
Sequence (P41594 21-1180 isoform P41594-2): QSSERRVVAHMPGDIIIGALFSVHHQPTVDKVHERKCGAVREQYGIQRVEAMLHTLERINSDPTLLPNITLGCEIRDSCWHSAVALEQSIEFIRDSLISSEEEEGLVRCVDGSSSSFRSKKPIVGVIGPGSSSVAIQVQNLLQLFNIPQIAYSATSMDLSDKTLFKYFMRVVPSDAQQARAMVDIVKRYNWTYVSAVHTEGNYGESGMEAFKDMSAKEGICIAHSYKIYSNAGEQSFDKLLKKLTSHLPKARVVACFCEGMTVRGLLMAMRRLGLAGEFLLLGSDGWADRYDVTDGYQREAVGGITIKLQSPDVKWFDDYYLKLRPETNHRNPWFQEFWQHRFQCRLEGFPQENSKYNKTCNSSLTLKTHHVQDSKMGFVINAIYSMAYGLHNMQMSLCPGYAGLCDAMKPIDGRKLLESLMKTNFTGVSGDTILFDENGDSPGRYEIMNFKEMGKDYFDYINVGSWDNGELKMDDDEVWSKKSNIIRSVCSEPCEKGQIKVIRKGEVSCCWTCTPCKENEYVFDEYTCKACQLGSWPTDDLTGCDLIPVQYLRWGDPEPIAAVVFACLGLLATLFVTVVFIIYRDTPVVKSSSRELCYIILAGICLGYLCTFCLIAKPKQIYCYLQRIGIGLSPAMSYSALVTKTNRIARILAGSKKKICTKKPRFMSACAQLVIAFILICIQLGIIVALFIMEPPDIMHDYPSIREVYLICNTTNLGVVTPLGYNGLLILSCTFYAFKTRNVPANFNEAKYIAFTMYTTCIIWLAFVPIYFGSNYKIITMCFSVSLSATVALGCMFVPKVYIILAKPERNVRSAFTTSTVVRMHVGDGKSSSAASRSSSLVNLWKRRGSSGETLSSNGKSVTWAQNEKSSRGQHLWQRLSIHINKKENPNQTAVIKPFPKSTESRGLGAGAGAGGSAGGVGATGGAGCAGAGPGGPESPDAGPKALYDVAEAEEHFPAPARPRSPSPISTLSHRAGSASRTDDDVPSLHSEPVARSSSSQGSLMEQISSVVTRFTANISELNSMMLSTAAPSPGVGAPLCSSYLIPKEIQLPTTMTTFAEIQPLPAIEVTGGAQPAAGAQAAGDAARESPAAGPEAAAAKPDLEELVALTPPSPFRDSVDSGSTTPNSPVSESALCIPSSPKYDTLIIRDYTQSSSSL
measurementNotes: mGluR5 FLIPR Assay
appliedConditions: positive modulator activity; HEK293 (ZF) cells with human mGluR5A and rat GLAST; Ca++ response to ~EC10 glutamate
Procedure: HEK293 (ZF) cells stably transfected with human mGluR5A (pIRES neo) and the rat glutamate-aspartate transporter (GLAST; pIRES puro) are grown in a monolayer culture at 37° C. in 5% CO2 and fed with Minimum Essential Medium (MEM) supplemented with 10% dialysed fetal bovine serum. […] Test compounds are incubated with cells in the presence of dye for 10 minutes prior to being read on the FLIPR platform (Molecular Devices). […]
measuredEndpoint: EC50

>>> testvalue("COc1cccc([C@H]2OC(=O)N[C@@H]2c2cccc(C#Cc3cccnc3C)c2)c1")
"> 1000 nM"

# return EC50 for each item in the list
1. COc1cccc([C@H]2OC(=O)N[C@@H]2c2cccc(C#Cc3cnc4ccccc4c3)c2)c1
2. C[C@]1(c2ccccc2)OC(=O)N[C@@H]1c1cncc(C#Cc2ccccc2)c1
3. C[C@]1(c2cncc(C#Cc3ncccc3F)c2)NC(=O)O[C@@H]1c1ccccc1
4. O=C1N[C@H](c2cncc(C#Cc3ccccc3)c2)[C@@H](c2ncco2)O1

1: > 30000 nM; 2: < 100 nM; 3: < 100 nM; 4: > 1000 nM

# return EC50 for each item in the list
1. COc1cccc([C@H]2OC(=O)N[C@@H]2c2cccc(C#Cc3ccnc(F)c3)c2)c1
2. O=C1N[C@H](c2cncc(C#Cc3ccccc3)c2)[C@@H](c2c(F)cc(F)cc2F)O1
3. O=C1N[C@@H](c2cncc(C#Cc3ccccc3)c2)[C@H](c2cccc(Cl)c2)O1 (single isomer, unassigned)
4. COc1ccccc1[C@H]1OC(=O)N[C@H]1c1cncc(C#Cc2ccccc2)c1 (single isomer, unassigned)
5. O=C1N[C@H](c2cccc(C#Cc3ccccc3)c2)[C@@H](c2ccccn2)O1
6. O=C1N[C@H](c2cccc(C#Cc3ccccc3)c2)C(c2cccs2)O1 (single isomer, unassigned)
7. N#Cc1cccc(C#Cc2cncc([C@H]3NC(=O)O[C@@H]3c3ccc(F)cc3)c2)c1
8. Cn1nccc1[C@H]1OC(=O)N[C@@H]1c1cncc(C#Cc2ccccc2)c1

["< 100 nM", "< 100 nM", "> 1000 nM", "> 1000 nM", "< 100 nM", "< 100 nM", "< 100 nM", "< 100 nM"]

# return EC50 for each item in the list
1. O=C1N[C@H](c2cc(C#Cc3ccccc3)cnc2F)[C@@H](c2ccccc2F)O1 (single isomer, unassigned)
2. O=C1N[C@H](c2cncc(C#Cc3ccccc3Cl)c2)[C@@H](c2cccc(F)c2)O1
3. O=C1N[C@@H](c2cncc(C#Cc3cncc(F)c3)c2)[C@H](c2ccc(F)cc2)O1 (single isomer, unassigned)
4. N#Cc1cccc(C#Cc2cncc([C@H]3NC(=O)O[C@@H]3c3cc(F)cc(F)c3)c2)c1

["< 100 nM", "< 100 nM", "> 1000 nM", "> 1000 nM"]

# return EC50 for each item in the list
1. O=C1N[C@@H](c2cc(C#Cc3cccc(F)c3)ccn2)[C@H](c2ccc(F)cc2)O1 (single isomer, unassigned)
2. C[C@@]1(c2cncc(C#Cc3ccccc3)c2)NC(=O)O[C@H]1c1cc(F)ccc1F (single isomer, unassigned)
3. O=C1N[C@@H](c2cncc(C#Cc3cccnc3)c2)[C@H](c2ccc(F)cc2)O1 (single isomer, unassigned)
4. O=C1N[C@@H](c2cccc(C#Cc3ccccc3F)n2)[C@H](c2ccccc2)O1 (single isomer, unassigned)
5. O=C1NC(c2cccc(C#Cc3ncccc3F)n2)C(c2ccc(F)cc2)O1 (single isomer, unassigned)

1: 100 to 1000 nM; 2: 100 to 1000 nM; 3: > 1000 nM; 4: > 1000 nM; 5: > 1000 nM
